EC50 values, listed per item
target: T1, IsdH (iron-regulated surface determinant protein H), recombinant (Staphylococcus aureus); assay: ELISA on coated recombinant antigen, half-maximal binding
T1 construct: also called recombinant IsdH
T1 sequence (Q2FG07 41-864): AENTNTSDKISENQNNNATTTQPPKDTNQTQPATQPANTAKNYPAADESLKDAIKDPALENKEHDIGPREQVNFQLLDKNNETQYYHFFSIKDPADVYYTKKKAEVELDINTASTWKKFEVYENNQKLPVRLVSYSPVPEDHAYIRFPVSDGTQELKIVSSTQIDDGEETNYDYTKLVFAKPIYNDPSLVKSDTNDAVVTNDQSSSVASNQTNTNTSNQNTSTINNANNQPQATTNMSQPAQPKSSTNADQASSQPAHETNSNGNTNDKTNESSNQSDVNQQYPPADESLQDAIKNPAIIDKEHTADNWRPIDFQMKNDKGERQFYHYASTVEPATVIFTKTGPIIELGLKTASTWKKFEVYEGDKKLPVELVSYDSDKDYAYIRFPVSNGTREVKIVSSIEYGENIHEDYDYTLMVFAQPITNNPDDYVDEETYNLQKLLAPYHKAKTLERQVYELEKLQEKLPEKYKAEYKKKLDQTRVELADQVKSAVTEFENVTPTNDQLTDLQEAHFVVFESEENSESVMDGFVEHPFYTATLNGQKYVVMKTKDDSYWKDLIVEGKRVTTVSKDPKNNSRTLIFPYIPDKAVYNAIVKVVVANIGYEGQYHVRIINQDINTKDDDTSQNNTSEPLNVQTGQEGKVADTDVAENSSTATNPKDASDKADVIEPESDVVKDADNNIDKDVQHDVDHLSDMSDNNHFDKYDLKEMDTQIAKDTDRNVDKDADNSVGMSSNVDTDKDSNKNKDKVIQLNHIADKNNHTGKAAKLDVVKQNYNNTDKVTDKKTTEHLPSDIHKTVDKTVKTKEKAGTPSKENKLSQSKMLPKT

binder	EC50, µg/mL
STAU-407 (antibody, V domains shown) VH: QLQLQESGPGLVKPSETLSLTCSVSGGSISRTYYYWDWIRQPPGKGLEWIGSVYYSGSTYYNPSLKSRVTMSVDTSKNLFSLKLSSVTAADTAVYYCASHESWQQLISWGQGTLVTVSS VL: QAVLTQPSSLSASPGASASLTCTLRSGINVGIYRIYWYQQKPGSPPQYLLRYKSDSDKHQGSGVPSRFSGSKDASANAGILLISGLQSEDEADYYCMIWHSSAVAFGGGTKLTVL	3.1
STAU-307 (antibody, V domains shown) VH: QVQLVQSGAEVKKTGSSVKVSCTASGATFNTNDLMWVRQAPGQGLEWMGGIVPVFGRPKYAKKFHGRLIISADEFTTTFYMELTSLTFDDTAIYYCARSGSTESPIQHIDFWGQGTLVTVSS VL: SYVLTQPPSVSVAPGQTATITCGGDNIATFSVHWYRQKPGQAPVLVVYDDLDRASGIPARFSGSNSGNTATLTISRVEPGDEADYFCQVWEISSDEYVFGPGTSVTVL	1e-05
